Biological target: B. taurus (heart) complex I (Bos taurus, UniProt P03887+P17694+P42026)
Sequence (P03887 whole entry): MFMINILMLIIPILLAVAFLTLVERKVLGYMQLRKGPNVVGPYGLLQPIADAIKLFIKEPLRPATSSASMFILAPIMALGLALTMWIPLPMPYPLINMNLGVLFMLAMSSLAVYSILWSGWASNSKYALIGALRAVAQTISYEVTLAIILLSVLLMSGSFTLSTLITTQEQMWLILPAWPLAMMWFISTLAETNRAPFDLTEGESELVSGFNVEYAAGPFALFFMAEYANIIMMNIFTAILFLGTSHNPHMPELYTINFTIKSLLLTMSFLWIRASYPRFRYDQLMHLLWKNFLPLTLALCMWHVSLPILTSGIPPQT
Sequence (P17694 34-463): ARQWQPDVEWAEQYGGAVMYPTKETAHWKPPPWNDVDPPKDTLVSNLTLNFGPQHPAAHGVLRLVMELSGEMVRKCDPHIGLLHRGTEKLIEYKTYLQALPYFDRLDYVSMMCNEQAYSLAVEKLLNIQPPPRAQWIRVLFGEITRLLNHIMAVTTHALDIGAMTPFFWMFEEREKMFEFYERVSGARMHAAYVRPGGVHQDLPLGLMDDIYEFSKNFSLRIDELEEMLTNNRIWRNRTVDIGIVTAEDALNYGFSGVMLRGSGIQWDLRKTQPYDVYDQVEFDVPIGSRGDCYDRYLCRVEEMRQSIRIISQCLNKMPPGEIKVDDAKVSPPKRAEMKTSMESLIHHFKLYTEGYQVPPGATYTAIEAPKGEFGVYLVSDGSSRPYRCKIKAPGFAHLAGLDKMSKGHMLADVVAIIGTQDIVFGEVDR
Sequence (P42026 38-216): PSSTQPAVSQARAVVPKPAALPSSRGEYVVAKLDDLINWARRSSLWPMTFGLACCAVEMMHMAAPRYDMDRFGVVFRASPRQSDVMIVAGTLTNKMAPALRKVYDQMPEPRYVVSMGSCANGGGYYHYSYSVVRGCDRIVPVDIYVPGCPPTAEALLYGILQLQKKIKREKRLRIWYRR
Test: biochemical
Assay type: biochemical
Conditions: B. taurus; dose 0.0005 µM; individual replicates (Rep); read-out: Complex I activity, dose-response data
Description: Six 8–10-week-old C57Bl/6 female mice (Charles River) were freshly dissected, and their livers and hearts collected into separate 1.5 mL microcentrifuge tubes. Organs were flash-frozen in liquid nitrogen and stored at −80 °C prior to use. […] The enzymatic activities of individual ETC complexes (I-IV) were assessed spectrophotometrically in isolated mitochondria using a Varioskan LUX Multimode plate reader (ThermoFisher Scientific). […]
endpoint.label: activity at 0.0005 µM (%)
Please reply with the bare figure in % and do not write the unit itself.

// activity at 0.0005 µM (B. taurus (heart) complex I (Bos taurus, UniProt P03887+P17694+P42026)) for COc1cc2c(cc1OC)C(c1ccc(-c3ccc(Cl)c(Cl)c3)o1)=NCC2 = 100

Bench note, B. taurus (heart) complex I (Bos taurus, UniProt P03887+P17694+P42026): entry COc1cc2c(cc1OC)C(C(C)c1ccc(CC(C)C)cc1)=NCC2 (stereo not shown) , its activity at 0.0005 µM = 106

Simply: COc1cc2c(cc1OC)C(/C=C/c1ccc(N(C)C)cc1)=NCC2 , B. taurus (heart) complex I (Bos taurus, UniProt P03887+P17694+P42026), activity at 0.0005 µM = 94.5

Observed activity at 0.0005 µM on B. taurus (heart) complex I (Bos taurus, UniProt P03887+P17694+P42026), entry CC(C)Cc1ccc(C(C)c2nc3ccccc3n2C)cc1 (stereo not shown) , equals 99.4

* * *

target: M. musculus (heart) complex I (Mus musculus, UniProt P03888+Q91WD5+Q9DC70); experiment: biochemical; assay type: biochemical; details: M. musculus; dose 0.0001 µM; individual replicates (Rep); read-out: Complex I activity, dose-response data
Sequence (Q91WD5 34-463): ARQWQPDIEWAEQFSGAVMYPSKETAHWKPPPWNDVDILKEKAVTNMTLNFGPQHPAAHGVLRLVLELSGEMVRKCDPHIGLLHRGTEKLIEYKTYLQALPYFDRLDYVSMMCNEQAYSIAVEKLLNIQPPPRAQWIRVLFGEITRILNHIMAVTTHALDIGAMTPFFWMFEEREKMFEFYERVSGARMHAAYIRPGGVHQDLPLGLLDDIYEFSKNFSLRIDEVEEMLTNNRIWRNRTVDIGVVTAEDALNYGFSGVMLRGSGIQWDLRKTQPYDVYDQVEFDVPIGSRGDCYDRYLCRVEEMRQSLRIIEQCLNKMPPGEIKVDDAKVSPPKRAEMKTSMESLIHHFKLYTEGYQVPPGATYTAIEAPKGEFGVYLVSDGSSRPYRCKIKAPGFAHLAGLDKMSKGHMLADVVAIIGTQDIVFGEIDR
Sequence (Q9DC70 36-224): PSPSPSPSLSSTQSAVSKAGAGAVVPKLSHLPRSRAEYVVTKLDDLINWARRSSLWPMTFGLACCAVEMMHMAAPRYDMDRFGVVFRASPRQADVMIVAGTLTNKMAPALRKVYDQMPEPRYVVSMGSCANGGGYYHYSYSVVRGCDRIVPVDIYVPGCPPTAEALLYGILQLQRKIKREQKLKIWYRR
Sequence (P03888 whole entry): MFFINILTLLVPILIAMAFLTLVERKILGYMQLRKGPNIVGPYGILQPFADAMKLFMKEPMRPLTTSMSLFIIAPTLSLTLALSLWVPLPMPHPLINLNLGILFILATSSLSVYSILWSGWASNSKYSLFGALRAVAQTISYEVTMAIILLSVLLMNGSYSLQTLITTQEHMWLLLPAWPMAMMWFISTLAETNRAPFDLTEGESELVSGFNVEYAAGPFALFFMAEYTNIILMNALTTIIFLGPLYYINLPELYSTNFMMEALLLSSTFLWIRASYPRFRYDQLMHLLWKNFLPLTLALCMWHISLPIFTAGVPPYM
endpoint.label: activity at 0.0001 µM (%)
Return type: number; implicit unit %.

For record COc1cc2c(cc1OC)C(/C=C/c1ccc(N(C)C)cc1)=NCC2 the listed activity at 0.0001 µM is 101

get_value(item= CC(C)Cc1ccc(C(C)c2nc3ccccc3n2C)cc1 (stereo not shown) , readout=activity at 0.0001 µM) returns 100

Briefly, activity at 0.0001 µM measured for COc1cc2c(cc1OC)C(C(C)c1ccc(CC(C)C)cc1)=NCC2 (stereo not shown) : 104

The reported value for COc1cc2c(cc1OC)C(c1ccc(-c3ccc(Cl)c(Cl)c3)o1)=NCC2 in terms of activity at 0.0001 µM is 98.7

* * *

Consider the following molecules; for each one, report its Median # of living H. polygyrus worms.
test system: H. polygyrus; assay: In vivo efficacy study in H. polygyrus mouse model; parameters: species or system NMRI mice infected with H. polygyrus; details: single oral dose 200 mg/kg; median (MAD) of adults collected from intestine

Per the records, this molecule ( CCn1c(C(C)c2ccc(CC(C)C)cc2)nc2ccccc21 (stereo not shown) ) has Median # of living H. polygyrus worms equal to 73.0 (1.5)

Measured Median # of living H. polygyrus worms, Clc1ccc(SCCCCn2cnc3ccccc32)cc1 : 100.0 (8.0)

Entry CC(C)Cc1ccc(C(C)c2nc3ccccc3n2C)cc1 (stereo not shown) , Median # of living H. polygyrus worms reported as 95.5 (4.0)

Notebook: Cc1ccccc1OCCCCn1cnc2ccccc21 , Median # of living H. polygyrus worms read as 93.5 (5.0)

* * *

For each of the compounds below, state its activity at 0.005 µM.
target: B. taurus (heart) complex I (Bos taurus, UniProt P03887+P17694+P42026); assay: biochemical; type: biochemical; conditions: Dose 0.005 µM; read-out: B. taurus mitochondrial complex I activity
Reply with just the number (in %).

Item: Clc1ccc(Cn2cnc3ccccc32)c(Cl)c1 | activity at 0.005 µM: 91.7

// field: activity at 0.005 µM; key: Clc1ccc(SCCCCn2cnc3ccccc32)cc1 ; value = 88.9

Kindly note the recorded activity at 0.005 µM for Cc1ccc(C(C)C)c(OCC(O)Cn2cnc3ccccc32)c1 (centres unmarked) , which is 99.5

Reported activity at 0.005 µM of Clc1ccc(OCCn2cnc3ccccc32)c(Cl)c1 : 98.8

Note to self: activity at 0.005 µM recorded for Clc1ccc(Cn2cnc3ccccc32)cc1Cl was 97.3

Record Cc1nc2ccccc2n1CCOc1ccccc1 . Reported activity at 0.005 µM: 103

// field: activity at 0.005 µM; key: Cc1nc2ccccc2n1CCOc1ccccc1Cl ; value = 90.4

Input Cc1ccccc1OCCCn1c(C)nc2ccccc21 . Output activity at 0.005 µM: 107

* * *

Kindly supply the reported remaining activity at 0.063 µM values for the records listed here.
Target: C. elegans (N2) complex I (NADH:ubiquinone oxidoreductase) (Caenorhabditis elegans, UniProt P24887+Q93873+Q94360)
Sequence (Q94360 17-199): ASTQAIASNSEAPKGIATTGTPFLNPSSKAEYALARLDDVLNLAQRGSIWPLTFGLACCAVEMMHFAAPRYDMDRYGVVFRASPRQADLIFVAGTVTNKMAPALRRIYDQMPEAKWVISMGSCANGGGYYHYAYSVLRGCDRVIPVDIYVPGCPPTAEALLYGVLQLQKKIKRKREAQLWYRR
Sequence (P24887 whole entry): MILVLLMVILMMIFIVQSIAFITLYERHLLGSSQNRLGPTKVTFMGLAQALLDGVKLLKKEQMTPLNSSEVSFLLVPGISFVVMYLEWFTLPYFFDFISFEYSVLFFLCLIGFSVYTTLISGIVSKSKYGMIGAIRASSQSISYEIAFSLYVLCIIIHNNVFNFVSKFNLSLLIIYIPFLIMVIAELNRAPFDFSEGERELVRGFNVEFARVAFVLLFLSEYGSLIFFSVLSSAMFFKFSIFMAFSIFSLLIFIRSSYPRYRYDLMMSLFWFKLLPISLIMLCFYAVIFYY
Sequence (Q93873 31-482): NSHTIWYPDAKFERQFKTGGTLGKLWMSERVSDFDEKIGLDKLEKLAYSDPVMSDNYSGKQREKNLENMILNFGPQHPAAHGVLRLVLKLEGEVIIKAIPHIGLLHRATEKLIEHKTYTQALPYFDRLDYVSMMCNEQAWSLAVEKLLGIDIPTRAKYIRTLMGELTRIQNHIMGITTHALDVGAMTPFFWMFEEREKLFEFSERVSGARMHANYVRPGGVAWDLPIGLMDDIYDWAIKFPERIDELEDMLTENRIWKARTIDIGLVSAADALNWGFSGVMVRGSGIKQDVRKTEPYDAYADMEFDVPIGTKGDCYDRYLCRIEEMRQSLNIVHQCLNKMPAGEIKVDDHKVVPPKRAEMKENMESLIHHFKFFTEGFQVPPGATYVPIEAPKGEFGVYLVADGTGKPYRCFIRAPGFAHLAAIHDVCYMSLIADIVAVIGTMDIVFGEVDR
Assay: biochemical
Assay type: biochemical
Conditions: dose 0.063 µM; wild-type C. elegans; single replicate; read-out: in vitro complex I activity relative to solvent control, individual replicate
Method: Mitochondria were isolated from the following free-living nematode strains: C. elegans—N2, CB3474, ECA882, ECA917, ECA1075, ECA1080; C. briggsae—AF16; P. pacificus—PS312; and P. hermaphrodita—B178. With the exception of the P. hermaphrodita strain B178, adult worms of each strain were grown in bulk through liquid culture to obtain mitochondria in sufficient quantities. […]
Kindly provide the numeric value in % only, without the unit symbol.

Recorded result, Cc1ccccc1OCCCCn1cnc2ccccc21 [Compound 7732524] , remaining activity at 0.063 µM: 65

// remaining activity at 0.063 µM value for Cc1nc2ccccc2n1Cc1ccc(Cl)cc1 [STK697993] : 58.9

# molecule COC(=O)Nc1nc2ccc(Sc3ccccc3)cc2[nH]1 [fenbendazole, reference compound] ; its remaining activity at 0.063 µM = 98

The molecule C=C(C)[C@H]1Cc2c(ccc3c2O[C@@H]2COc4cc(OC)c(OC)cc4[C@@H]2C3=O)O1 [Rotenone, reference compound] showed remaining activity at 0.063 µM equal to 21.5

* * *

Give measured activity at 0.313 µM for each item. Keep answers brief.
molecular target: B. taurus (heart) complex I (Bos taurus, UniProt P03887+P17694+P42026); assay: biochemical; format: biochemical; settings: Dose 0.313 µM; read-out: B. taurus mitochondrial complex I activity
Quick reminder: number only, in %, skip the unit.

Record Cc1ccc(OCCn2cnc3ccccc32)cc1 . Reported activity at 0.313 µM: 91.3

Sure, the documented activity at 0.313 µM for Cc1ccccc1OCCCn1c(C)nc2ccccc21 is 96.6

// activity at 0.313 µM value for CCc1cc(OCCn2cnc3ccccc32)ccc1Cl : 79.8

Entry CCCOc1ccc(Cn2cnc3ccccc32)cc1 , activity at 0.313 µM reported as 97.1

response.value for Nc1nc2ccccc2n1Cc1ccc(Cl)cc1 (field: activity at 0.313 µM) = 76.3

Summary for this molecule, Cc1cccc(OCCn2c(C)nc3ccccc32)c1 : activity at 0.313 µM is 83.8

Lab book: activity at 0.313 µM of Cc1nc2ccccc2n1CCOc1ccccc1Cl noted as 83.2

Noted for Cc1ccc(OCCn2cnc3ccccc32)c(C)c1 : its activity at 0.313 µM reads 91.4

Please fill in: activity at 0.313 µM reported for Cc1ccc(C(C)C)c(OCC(O)Cn2cnc3ccccc32)c1 (stereo not shown) = 81.5

Item: Clc1ccc(SCCCCn2cnc3ccccc32)cc1 | activity at 0.313 µM: 94.7

* * *

I'd be grateful if you could share measured activity at 0.005 µM for these entries.
molecular target: M. musculus (heart) complex I (Mus musculus, UniProt P03888+Q91WD5+Q9DC70); assay: biochemical; type: biochemical; conditions: M. musculus; dose 0.005 µM; Mean of replicates; read-out: Complex I activity, dose-response data
Report the value in % with no unit label.

Lab note: COc1cc2c(cc1OC)C(/C=C/c1ccc(N(C)C)cc1)=NCC2 gave activity at 0.005 µM of 104

Memo: COc1cc2c(cc1OC)C(c1ccc(-c3ccc(Cl)c(Cl)c3)o1)=NCC2 , reported activity at 0.005 µM: 107

Just so you know, measured activity at 0.005 µM for CC(C)Cc1ccc(C(C)c2nc3ccccc3n2C)cc1 (stereo not shown) came out at 104

So for COc1cc2c(cc1OC)C(C(C)c1ccc(CC(C)C)cc1)=NCC2 (stereo not shown) , the logged activity at 0.005 µM turned out to be 106

* * *

Assignment: determine reported remaining activity at 0.313 µM for the given compounds.
target: C. elegans (N2) complex I (NADH:ubiquinone oxidoreductase) (Caenorhabditis elegans, UniProt P24887+Q93873+Q94360); assay: biochemical; format: biochemical; details: dose 0.313 µM; wild-type C. elegans; mean of replicates; read-out: in vitro complex I activity relative to solvent control, Mean
Quick note: give the figure in %, leave out the unit.

Please fill in: remaining activity at 0.313 µM reported for C=C(C)[C@H]1Cc2c(ccc3c2O[C@@H]2COc4cc(OC)c(OC)cc4[C@@H]2C3=O)O1 [Rotenone, reference compound] = 0.682

Entry Cc1nc2ccccc2n1Cc1ccc(Cl)cc1 , remaining activity at 0.313 µM reported as 24.1

Looking up COC(=O)Nc1nc2ccc(Sc3ccccc3)cc2[nH]1 [fenbendazole, reference compound] , I found its remaining activity at 0.313 µM recorded as 101

remaining activity at 0.313 µM in this record for Cc1ccccc1OCCCCn1cnc2ccccc21 : 25.3

Documented remaining activity at 0.313 µM of CC(C)(C)c1ccc(CCOc2ncnc3ccccc23)cc1 [Fenazaquin, reference compound] : 1.71
